Tested on: Shionogi mouse mammary carcinoma cells
Assay: Androgenic activity: stimulation of proliferation of Shionogi cells
Type: cell-based
Settings: E^−6
READOUT LABEL: Androgenic Activity Shionogi, Basal E^−6

Use these answered entries as a reference point.
* CC1=C[C@@H]2[C@H](CC[C@]3(C)C(=O)C4(CCCCC4)C[C@@H]23)[C@@]2(C)CCC(=O)C=C12 | −4
* CC(C)C[C@@H]1CC2C3C=CC4=CC(=O)CC[C@]4(C)C3CC[C@]2(C)C1=O (some centres unmarked) | −36
* C[C@]12CCC(=O)C=C1C=C[C@@H]1[C@@H]2CC[C@]2(C)C(=O)C3(CC4CC4C3)C[C@@H]12 (some centres unmarked) | 10
* CCC[C@@H]1CC2C3C=CC4=CC(=O)CC[C@]4(C)C3CC[C@]2(C)C1=O (some centres unmarked) | −12

Exercise: Report Androgenic Activity Shionogi, Basal E^−6 for CC12C=CC(=O)C=C1C=CC1C2CCC2(C)C(=O)C3(CCCCC3)CC12 (centres unmarked)
Solution: −17

Exercise: # return recorded Androgenic Activity Shionogi, Basal E^−6 for input CC(=O)O[C@]1(C)C(=O)CCC2C3C=C(C)C4=CC(=O)C=C[C@]4(C)C3CC[C@@]21C (some centres unmarked)
Solution: −29

Exercise: Answer with the recorded Androgenic Activity Shionogi, Basal E^−6 of CCC[C@]1(F)CC2C3C=CC4=CC(=O)CC[C@]4(C)C3CC[C@]2(C)C1=O (some centres unmarked) only.
Solution: −17

Exercise: Identify the reported Androgenic Activity Shionogi, Basal E^−6 for the following entry. CCCC(=O)O[C@]1(C)C(=O)CCC2C3C=C(C)C4=CC(=O)CC[C@]4(C)C3CC[C@@]21C (some centres unmarked)
Solution: 45

----------
Biological target: human type 5 17β-hydroxysteroid dehydrogenase (Homo sapiens)
Construct: screen again a human placental λgt11 cDNA to get the full length cDNA clone; expressed in transfected cells; host or cells: human embryonal kidney 293 cells (pCMV / pCMV-neo vector)
Sequence (P42330 whole entry): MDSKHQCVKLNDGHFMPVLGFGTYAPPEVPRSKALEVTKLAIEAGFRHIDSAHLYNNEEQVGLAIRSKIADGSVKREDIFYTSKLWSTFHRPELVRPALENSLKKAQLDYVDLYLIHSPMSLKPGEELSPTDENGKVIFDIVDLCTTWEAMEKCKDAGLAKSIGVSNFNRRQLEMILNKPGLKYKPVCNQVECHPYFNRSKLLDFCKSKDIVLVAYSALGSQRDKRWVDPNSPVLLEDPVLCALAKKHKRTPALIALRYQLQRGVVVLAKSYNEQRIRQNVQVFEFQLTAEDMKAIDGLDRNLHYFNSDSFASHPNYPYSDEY
Experiment: Reversibility of human type 5 17β-HSD inhibitory activity (preincubation, wash)
Type: cell-based
Details: Table 4′
Listed next: entries and their corresponding Reversibility ((%) of control).

Example entries and their recorded answers appear below.
* COc1cc2c(cc1C)C1CCC3(C)C(CCC34CCC(C)(C)C(=O)O4)C1CC2 (stereo not drawn) | 71 % of control
* COCCOc1cc2c(cc1C(=O)OC)C1CC[C@@]3(C)C(CC[C@@]34CCC(C)(C)C(=O)O4)C1CC2 (stereo partly drawn) | 25 % of control
* CC1(C)CCC2(CCC3C4CCc5cc(OCCN6CCCCC6)ccc5C4CCC32C)OC1=O (stereo not drawn) | 50 % of control
* COCCOc1cc2c(cc1C(=O)N(C)C)C1CCC3(C)C(CCC34CCC(C)(C)C(=O)O4)C1CC2 (stereo not drawn) | 37 % of control

Exercise: Indicate its recorded Reversibility ((%) of control); the compound in question is CC1(C)CCC2(CCC3C4CCc5c(cc(Cl)c(O)c5Cl)C4CCC32C)OC1=O (stereo not drawn)
Solution: 49 % of control

Exercise: Give recorded Reversibility ((%) of control). COc1ccc2c(c1)C(=O)CC1C3CCC4(CCC(C)(C)C(=O)O4)C3(C)CCC21O (stereo not drawn)
Solution: 54 % of control

Exercise: # return recorded Reversibility ((%) of control) for entry CC1(C)CCC2(CCC3C4CCc5cc(OS(C)(=O)=O)ccc5C4CCC32C)OC1=O (stereo not drawn)
Solution: 49 % of control

Exercise: Identify the reported Reversibility ((%) of control) for the following entry. CC1(C)CC[C@@]2(CCC3C4CCc5cc(C(=O)O)ccc5C4CC[C@@]32C)OC1=O (stereo partly drawn)
Solution: 31 % of control

Exercise: Provide measured Reversibility ((%) of control) value, entry: COCCOc1cc2c(cc1C#N)C1CC[C@@]3(C)C(CC[C@@]34CCC(C)(C)C(=O)O4)C1CC2 (stereo partly drawn)
Solution: 28 % of control

Exercise: Given CN(C)CCOc1ccc2c(c1)CCC1C2CCC2(C)C1CCC21CCC(C)(C)C(=O)O1 (stereo not drawn) , respond with its Reversibility ((%) of control).
Solution: 40 % of control

Exercise: Fill in reported Reversibility ((%) of control) for this entry: COCCOc1cc2c(cc1C(=O)O)C1CCC3(C)C(CCC34CCC(C)(C)C(=O)O4)C1CC2 (stereo not drawn)
Solution: 53 % of control

Exercise: Provide Reversibility ((%) of control) value for the following compound: COc1ccc2c(c1)C(=O)CC1C2CC[C@@]2(C)C1CC[C@@]21CCC(C)(C)C(=O)O1 (stereo partly drawn)
Solution: 23 % of control

Exercise: Tell me measured Reversibility ((%) of control) for CC1(C)CC[C@@]2(CCC3C4CCc5cc(F)ccc5C4CC[C@@]32C)OC1=O (stereo partly drawn) please.
Solution: 28 % of control

Exercise: Give Reversibility ((%) of control) for the following compound: COCCOc1cc2c(cc1F)C1CCC3(C)C(CCC34CCC(C)(C)C(=O)O4)C1CC2 (stereo not drawn)
Solution: 38 % of control

Exercise: Please give measured Reversibility ((%) of control) of the following entry: COCCOc1cc2c(cc1C(N)=O)C1CC[C@@]3(C)C(CC[C@@]34CCC(C)(C)C(=O)O4)C1CC2 (stereo partly drawn)
Solution: 17 % of control

Exercise: Fill in Reversibility ((%) of control) for record CC1(C)CCC2(CCC3C4CCc5c(cc(Cl)c(OS(C)(=O)=O)c5Cl)C4CCC32C)OC1=O (stereo not drawn)
Solution: 38 % of control

Exercise: Name the recorded Reversibility ((%) of control) of the item COCCOc1cc2c(cc1Cl)C1CCC3(C)C(CCC34CCC(C)(C)C(=O)O4)C1CC2 (stereo not drawn) in your answer.
Solution: 40 % of control

Exercise: Fill in reported Reversibility ((%) of control) for this entry: COc1c(Br)cc2c(c1Br)CCC1C2CCC2(C)C1CCC21CCC(C)(C)C(=O)O1 (stereo not drawn)
Solution: 60 % of control

----------
Measured AUC(0-t), listed per entry for reference.
Assay: In vivo assay of oral bioavailability (plasma AUC 0-7 h by LCMS/MS)
Parameters: species or system male Sprague Dawley rats
Conditions: male, Sprague-Dawley [Crl:CD(SD)Br], rat, plasma, po, 0.5 mg
Unit ng·h/mL implied. Number only.

Example results:
• CC(=O)O[C@]1(C(=O)N(C)C)CCC2C3C=C(C)C4=CC(=O)CC[C@]4(C)C3CC[C@@]21C (stereo partly shown) [EM-1159] = 452
• CC(=O)[C@@]1(OC(=O)CCCCF)CCC2C3C=C(C)C4=CC(=O)CC[C@]4(C)C3CC[C@@]21C (stereo partly shown) [EM-1195-CS] = 31
• CCCC(=O)OC1(C(C)=O)CCC2C3C=C(C)C4=CC(=O)CC(C)C4(C)C3CCC21C (stereo not shown) [CS-245] = 18

Exercise: Please report AUC(0-t) for the following compound: COc1ccc(CC(=O)O[C@]2(C(C)=O)CCC3C4C=C(C)C5=CC(=O)C=C[C@]5(C)C4CC[C@@]32C)cc1 (stereo partly shown) [EM-1291]
Solution: 94

Exercise: // Input: CCC(=O)O[C@]1(C(C)=O)CCC2C3C=C(C)C4=CC(=O)C[C@H](C)[C@]4(C)C3CC[C@@]21C (stereo partly shown) [CS-243] . Output its AUC(0-t) only.
Solution: 11

Exercise: Return reported AUC(0-t). Input compound: CCCCN(C)C(=O)[C@@]1(OC(C)=O)CCC2C3C=C(C)C4=CC(=O)CC[C@]4(C)C3CC[C@@]21C (stereo partly shown) [EM-1165]
Solution: 24

Exercise: Given CC(=O)O[C@]1(C(C)=O)CCC2C3C=C(C)C4=CC(=O)CC[C@]4(C)C3CC[C@@]21C (stereo partly shown) [megestrol acetate, reference compound] , respond with its AUC(0-t).
Solution: 92

----------
Target: estrogen receptor (Rattus norvegicus)
Construct: from tissue; host or cells: uterine cytosol of gonadectomized female Sprague-Dawley rats
Sequence (P06211 whole entry): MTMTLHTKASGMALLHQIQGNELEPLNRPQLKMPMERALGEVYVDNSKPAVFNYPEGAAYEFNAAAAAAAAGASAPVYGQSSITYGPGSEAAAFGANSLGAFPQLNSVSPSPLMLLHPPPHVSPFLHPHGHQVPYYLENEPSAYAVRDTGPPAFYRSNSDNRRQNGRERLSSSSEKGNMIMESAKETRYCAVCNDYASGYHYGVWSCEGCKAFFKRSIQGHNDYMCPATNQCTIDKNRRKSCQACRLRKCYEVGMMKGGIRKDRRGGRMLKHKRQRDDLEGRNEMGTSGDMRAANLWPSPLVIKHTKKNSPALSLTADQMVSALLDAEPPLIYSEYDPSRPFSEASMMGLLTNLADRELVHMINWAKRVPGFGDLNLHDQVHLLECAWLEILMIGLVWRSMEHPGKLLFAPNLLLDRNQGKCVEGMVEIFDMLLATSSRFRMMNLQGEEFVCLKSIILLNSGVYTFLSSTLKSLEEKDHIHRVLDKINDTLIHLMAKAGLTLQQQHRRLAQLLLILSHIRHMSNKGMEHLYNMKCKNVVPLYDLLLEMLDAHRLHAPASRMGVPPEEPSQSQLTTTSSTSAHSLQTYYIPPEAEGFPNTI
Experiment: Estrogen receptor (ER) assay: inhibition of [3H]E2 binding, uterine cytosol
Details: E^−6
READOUT LABEL: % Inhibition Estrogen Receptor

Some molecules with known % Inhibition Estrogen Receptor results, for comparison:
- CCC(=O)O[C@]1(C(C)=O)CCC2C3C=C(C)C4=CC(=O)C[C@H](C)[C@]4(C)C3CC[C@@]21C (stereo partly shown) [CS-243]: 0%
- COC(=O)CCCC(=O)O[C@]1(C(C)=O)CC[C@H]2[C@@H]3C=C(C)C4=CC(=O)CC[C@]4(C)[C@H]3CC[C@@]21C [EM-1007]: 0%
- CCCCN(C)C(=O)[C@@]1(OC(C)=O)CCC2C3C=C(C)C4=CC(=O)CC[C@]4(C)C3CC[C@@]21C (stereo partly shown) [EM-1165]: 0%
- COc1ccc(CC(=O)O[C@]2(C(C)=O)CCC3C4C=C(C)C5=CC(=O)C=C[C@]5(C)C4CC[C@@]32C)cc1 (stereo partly shown) [EM-1291]: 0%
- CC(=O)O[C@]1(C(=O)N(C)C)CCC2C3C=C(C)C4=CC(=O)CC[C@]4(C)C3CC[C@@]21C (stereo partly shown) [EM-1159]: 1%

Exercise: Please list % Inhibition Estrogen Receptor recorded for the molecule CC(=O)[C@@]1(OC(=O)CCCCF)CCC2C3C=C(C)C4=CC(=O)CC[C@]4(C)C3CC[C@@]21C (stereo partly shown) [EM-1195-CS]
Solution: 0%

Exercise: Tell me % Inhibition Estrogen Receptor reported for CCCC(=O)OC1(C(C)=O)CCC2C3C=C(C)C4=CC(=O)CC(C)C4(C)C3CCC21C (stereo not shown) [CS-245]
Solution: 2%
